# target-entity: KRAS G12C/SOS1 (Homo sapiens)
# Construct: purchased Cytoskeleton (SOS1); AntibodySystem (KRAS G12C)
# measurement-description: KRAS G12C/SOS1 PPI homogeneous time-resolved fluorescence (HTRF) assay
# Format: binding
# condition-parameters: read-out: Inhibition rate (%)
measurement-name: inhibition at 50 µg/mL (%)

Cc1ccc(S(=O)(=O)Nc2cnc(N3CC=C(c4ccccc4C)CC3)c(C(=O)O)c2)c(C)c1: 49.9
Cc1ccccc1C1=CCN(c2ncc(NS(=O)(=O)c3ccc(C(C)C)cc3)cc2C(=O)O)CC1: 60.5
CC(C)c1ccc(S(=O)(=O)Nc2cnc(N3CCCC3)c(C(=O)O)c2)cc1: 72.3
Cc1ccc(S(=O)(=O)Nc2cnc(N3CCCC3)c(C(=O)O)c2)c(C)c1: 61.6

###

# target-entity: KRAS G12C/SOS1 (Homo sapiens)
# Construct: purchased Cytoskeleton (SOS1); AntibodySystem (KRAS G12C)
# measurement-description: KRAS G12C/SOS1 PPI homogeneous time-resolved fluorescence (HTRF) assay
# Type: binding
# condition-parameters: read-out: Inhibition rate (%)
measurement-name: inhibition at 0.5 µg/mL (%)

These solved cases illustrate the format of a correct answer.
CC(C)c1ccc(S(=O)(=O)Nc2cnc(N3CCCC3)c(C(=O)O)c2)cc1: 0.8
Cc1ccc(S(=O)(=O)Nc2cnc(N3CCCC3)c(C(=O)O)c2)c(C)c1: -1.6

(P) Cc1ccccc1C1=CCN(c2ncc(NS(=O)(=O)c3ccc(C(C)C)cc3)cc2C(=O)O)CC1
(Q) Cc1ccc(S(=O)(=O)Nc2cnc(N3CC=C(c4ccccc4C)CC3)c(C(=O)O)c2)c(C)c1
Input line: # returns the entry with the larger inhibition at 0.5 µg/mL; inputs P and Q Mark your answer with the label of the selected entry.
Output line: P
(P: 3.4%, Q: 1.5%)

###

# target-entity: KRAS G12C/SOS1 (Homo sapiens)
# Construct: purchased Cytoskeleton (SOS1); AntibodySystem (KRAS G12C)
# measurement-description: KRAS G12C/SOS1 PPI homogeneous time-resolved fluorescence (HTRF) assay
# Format: binding
# condition-parameters: dose-response 0.5–50 μg mL^−1; read-out: IC50 (μg mL^−1)
# Procedure: All the test compounds were provided by the CNCL (https://www.cncl.org.cn/). […] The percentage inhibition was calculated by comparison with the buffer control group. The IC50 value was calculated by GraphPad Prism software in inhibitor versus normalized response (variable slope) mode.
measurement-name: IC50 (µM)

These solved cases illustrate the format of a correct answer.
Cc1ccccc1C1=CCN(c2ncc(NS(=O)(=O)c3ccc(C(C)C)cc3)cc2C(=O)O)CC1: 66.3
Cc1ccc(S(=O)(=O)Nc2cnc(N3CC=C(c4ccccc4C)CC3)c(C(=O)O)c2)c(C)c1: 103

(a) Cc1ccc(S(=O)(=O)Nc2cnc(N3CCCC3)c(C(=O)O)c2)c(C)c1
(b) CC(C)c1ccc(S(=O)(=O)Nc2cnc(N3CCCC3)c(C(=O)O)c2)cc1
Input line: # returns the entry with the larger IC50; inputs a and b Mark your answer with the label of the selected entry.
Output line: a

###

# target-entity: KRAS G12C/SOS1 (Homo sapiens)
# Construct: purchased Cytoskeleton (SOS1); AntibodySystem (KRAS G12C)
# Sequence (Q07889 564-1049 limits assumed): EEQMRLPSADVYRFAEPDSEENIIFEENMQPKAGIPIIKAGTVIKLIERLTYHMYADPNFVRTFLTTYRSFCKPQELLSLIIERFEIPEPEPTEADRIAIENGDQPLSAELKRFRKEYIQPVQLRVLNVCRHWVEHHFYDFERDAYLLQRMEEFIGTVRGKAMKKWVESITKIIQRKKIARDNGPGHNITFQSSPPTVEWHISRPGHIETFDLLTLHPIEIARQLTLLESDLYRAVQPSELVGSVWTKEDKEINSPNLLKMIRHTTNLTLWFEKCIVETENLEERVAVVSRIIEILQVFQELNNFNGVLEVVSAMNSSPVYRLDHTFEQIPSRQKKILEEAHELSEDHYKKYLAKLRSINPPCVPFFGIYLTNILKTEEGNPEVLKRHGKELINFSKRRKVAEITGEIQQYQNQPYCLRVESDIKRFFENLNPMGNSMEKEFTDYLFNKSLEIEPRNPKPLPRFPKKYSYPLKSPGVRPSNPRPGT
# measurement-description: KRAS G12C/SOS1 PPI homogeneous time-resolved fluorescence (HTRF) assay
# Format: binding
# condition-parameters: read-out: Inhibition rate (%)
measurement-name: inhibition at 10 µg/mL (%)

These solved cases illustrate the format of a correct answer.
Cc1ccc(S(=O)(=O)Nc2cnc(N3CC=C(c4ccccc4C)CC3)c(C(=O)O)c2)c(C)c1: 14.5
Cc1ccccc1C1=CCN(c2ncc(NS(=O)(=O)c3ccc(C(C)C)cc3)cc2C(=O)O)CC1: 24.2

(I) CC(C)c1ccc(S(=O)(=O)Nc2cnc(N3CCCC3)c(C(=O)O)c2)cc1
(II) Cc1ccc(S(=O)(=O)Nc2cnc(N3CCCC3)c(C(=O)O)c2)c(C)c1
Input line: Select the item whose inhibition at 10 µg/mL value is smaller, choosing between I and II . Mark your answer with the label of the selected entry.
Output line: II
